Here we gather IC50 data for Protein smoothened (Homo sapiens, UniProt Q99835) reported by several publications.
readoutType: IC50 (nM)

# smilesStr, IC50, nM
measured = [
    ("C[C@@H]1CN(c2nnc(Cc3ccccc3)c3ccc(Cl)cc23)CCN1c1ccc(C#N)cn1", 440),
]

(I) c1ccc2c(Oc3nc(Nc4ccc(N5CCOCC5)cc4)c4ncn(C5CCCCC5)c4n3)cccc2c1
(II) Cc1cc(F)cnc1-c1cc(N2CCN(C(=O)CCS(C)(=O)=O)CC2)ncc1Cl
(III) O=S(=O)(NC1CCN(c2ccc(Cl)c(-c3ccccn3)n2)CC1)C1CC1
(Q) Put these in order: smallest IC50 first, largest last. Labels, ranked as asked.
(A) II, III, I
(II: 7.11 nM, III: 16.5 nM, I: 1500 nM)
